Biological target: T1, UAP56 (human, UniProt Q13838 1-428)
T1 construct: The methods name 6×His-TwinSTREPII-3C-UAP56 and 10×His-3C-UAP56; also called DDX39B; DDX39
Experiment: grating-coupled interferometry (GCI); biotinylated UBM or UCM peptides captured on a streptavidin chip; UAP56 injected; 25 mM HEPES pH 7.9, 50 mM KCl, 1 mM MgCl2, 1 mM TCEP, 25 °C; one-to-one model; UCM peptides also with AMP-PNP or AMP-PNP and 15 U RNA
Conditions: both partners purified
pKd: −log10 of the molar value. Where no end group is shown, it is not given here.
quantity-name: pKd

*Q* Recorded pKd of SISRKSEDDEKLKKRKERFGIVTS (also: biotinylated, site not given here) [SARNP UCM-4 peptide, biotinylated] , please.
*A* 4.70 to 5.00

// provenance: paper PMC12823420
